test system: SK-MEL-2 melanoma; experiment: NCI tumour cell line growth inhibition, 48 h; in the data active = GI50 below about 0.43 µM; inactive = the rest
Outcomes: class 1 = active, class 0 = inactive

| MOLECULE | CAT |
| --- | --- |
| C/C(=N\NC(=O)c1ccccc1N)c1ccccc1O | class 0 |
| COc1ccc2c(c1)C(=O)c1c-2c(=O)n(CCCCCCC(=O)NO)c2ccccc12 | class 0 |
| CCOC(=O)C#Cc1c(C(=O)OCC)nnn1Cc1ccc(C(F)(F)F)cc1 | class 0 |
| CC(C)CNC(=O)c1ccc(NC(=O)N(CC(C)C)C(=O)c2ccc(N)c(OCCCN)c2)c(OCCCN=C(N)N)c1 | class 0 |
| CC(=O)O[C@H]1[C@@H]2OC(=O)C3(CC3)C2C[C@H]2O[C@]2(C)CC/C=C(\C)CCC[C@@H]1C (some centres undefined) | class 0 |
| CCC(C)C1=NC(C(=O)N/C=C\c2c[nH]c3cc(Br)c(Br)cc23)(C(C)C)NC1=O (centres undefined) | class 0 |
| COC(=O)C12OCC34C(CC5C(C)=C(O)C(=O)CC5(C)C3C(O)C1O)OC(=O)C(OC(=O)C=C(C)C)C24 (centres undefined) | class 1 |
| COc1cc(/C=C\c2cc(/C=C\c3ccc(O)c(OC)c3)n(C(=O)COc3ccccc3)n2)ccc1O | class 0 |
| O=c1c2[nH]ccc2nc2n1CCS2 | class 0 |
